Recorded measurements of pEC50, one per entry
Tested on: HCV genotype 1a (H77 strain) replicon in HUH-7 cells
EXPERIMENT NOTES: HCV replicon luciferase reporter assay, genotype 1a
Type: cell-based
TEST CONDITIONS: Hepatitis C virus, Huh-7, 72 h, HCV genotype 1a replicon luciferase, 3 days incubation, read-out: LE_1a (EC50)
pEC50: −log10 of the molar value.
READOUT NAME: pEC50

MOLECULE	TARGET SYSTEM	OBSERVED RESULT
CC[C@@H]1C[C@H](C)CC/C=C\[C@@H]2C[C@@]2(C(=O)NS(=O)(=O)C2CC2)NC(=O)[C@@H]2C[C@@H](Oc3nccc4c5c(ccc34)N(C)CCO5)CN2C(=O)[C@H]1NC(=O)O[C@@H]1C[C@@H]2C[C@@H]2C1 [Compound 5314]	HCV genotype 1a (H77 strain) replicon in HUH-7 cells	8.80
CCCOc1cnc(O[C@@H]2C[C@H]3C(=O)N[C@]4(C(=O)NS(=O)(=O)C5(C)CC5)C[C@H]4/C=C\CC[C@H](C)C[C@@H](C)[C@H](NC(=O)OCC4(C)CC4)C(=O)N3C2)c2ccccc12 [Compound 5082]	HCV genotype 1a (H77 strain) replicon in HUH-7 cells	6.70
C[C@H]1CC/C=C\[C@@H]2C[C@@]2(C(=O)NS(=O)(=O)C2(C)CC2)NC(=O)[C@@H]2C[C@@H](Oc3nccc4c5c(ccc34)OCCO5)CN2C(=O)[C@@H](NC(=O)O[C@H](C)C(F)(F)F)[C@H](C)C1 [Compound 5252]	HCV genotype 1a (H77 strain) replicon in HUH-7 cells	7.82
CCn1nc(O[C@@H]2C[C@H]3C(=O)N[C@]4(C(=O)NS(=O)(=O)C5(C)CC5)C[C@H]4/C=C\CC[C@H](C)C[C@@H](C)[C@H](NC(=O)OC(C)(C)C(F)(F)F)C(=O)N3C2)c2ccccc2c1=O [Compound 5052]	HCV genotype 1a (H77 strain) replicon in HUH-7 cells	6.48
CCn1nc(O[C@@H]2C[C@H]3C(=O)N[C@]4(C(=O)NS(=O)(=O)C5(C)CC5)C[C@H]4/C=C\CC[C@H](C)C[C@@H](C)[C@H](NC(=O)O[C@@H]4C[C@@H]5C[C@@H]5C4)C(=O)N3C2)c2ccccc2c1=O [Compound 5056]	HCV genotype 1a (H77 strain) replicon in HUH-7 cells	6.59

All figures here come from patent US9499550B2.
